Target: CCK2 receptor (Homo sapiens, UniProt P32239)
Construct: analyzed for ZFP expression as well as CCK2R induction upon addition of doxycycline to the culture medium; endogenous in cells
Sequence (P32239 whole entry): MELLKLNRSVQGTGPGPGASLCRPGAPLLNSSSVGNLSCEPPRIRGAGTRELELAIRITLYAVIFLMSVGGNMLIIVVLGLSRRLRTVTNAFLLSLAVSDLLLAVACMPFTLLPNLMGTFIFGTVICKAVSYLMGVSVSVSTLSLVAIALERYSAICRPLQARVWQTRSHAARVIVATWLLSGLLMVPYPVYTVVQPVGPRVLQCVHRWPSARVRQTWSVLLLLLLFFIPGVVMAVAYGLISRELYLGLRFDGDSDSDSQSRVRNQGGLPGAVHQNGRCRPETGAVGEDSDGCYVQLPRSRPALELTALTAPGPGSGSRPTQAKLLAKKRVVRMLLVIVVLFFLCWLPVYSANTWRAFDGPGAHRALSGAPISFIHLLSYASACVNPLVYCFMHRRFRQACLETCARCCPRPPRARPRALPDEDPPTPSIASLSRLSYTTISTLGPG
Assay: CCK2 binding assay ([125I]-BH-CCK-8S displacement, HEKZFP membranes)
Conditions: membranes of doxycycline-induced HEKZFP cells; 20 pM [125I]-BH-CCK-8S; 60 min at 21±3° C.; read-out: CCK2 pKi (converted)
QUANTITY NAME: log10 of Ki (log10 of the value in nM)
Annotation: log10 of Ki, nM basis.

Example entries and their recorded answers appear below.
COMPOUND | log10 of Ki
CC(CNC(=O)c1ccc(I)cc1NS(=O)(=O)c1c(F)cccc1F)c1ccc([N+](=O)[O-])cc1 (stereo not drawn) | 3.30
O=C(N[C@@H](Cc1ccccc1)C(=O)O)c1cc(Cl)c(Cl)cc1NS(=O)(=O)c1cccc2nccnc12 | 1.90

**Q:** Can you look up the measured log10 of Ki of CC(CNC(=O)c1cc(Cl)c(Cl)cc1NS(=O)(=O)c1cccc2nsnc12)c1ccc(Cl)c(Cl)c1 (racemic) for me?
**A:** 2.70

**Q:** "O=C(N[C@@H](Cc1ccccc1)C(=O)O)c1ccc(Br)cc1NS(=O)(=O)c1cccc2nsnc12" ?
**A:** 1.60

**Q:** "NC(=O)[C@H](Cc1ccc(Cl)cc1)NC(=O)c1cc(Cl)c(Cl)cc1NS(=O)(=O)c1cccc2nsnc12" ?
**A:** 2.50

**Q:** "COC(=O)[C@H](Cc1ccc(Cl)cc1)NC(=O)c1cc(Cl)c(Cl)cc1NS(=O)(=O)c1cccc2nsnc12" ?
**A:** 2.40
